5-hydroxytryptamine receptor 1B (Rattus norvegicus): recorded pKi for assorted molecules
Sequence (P28564 whole entry): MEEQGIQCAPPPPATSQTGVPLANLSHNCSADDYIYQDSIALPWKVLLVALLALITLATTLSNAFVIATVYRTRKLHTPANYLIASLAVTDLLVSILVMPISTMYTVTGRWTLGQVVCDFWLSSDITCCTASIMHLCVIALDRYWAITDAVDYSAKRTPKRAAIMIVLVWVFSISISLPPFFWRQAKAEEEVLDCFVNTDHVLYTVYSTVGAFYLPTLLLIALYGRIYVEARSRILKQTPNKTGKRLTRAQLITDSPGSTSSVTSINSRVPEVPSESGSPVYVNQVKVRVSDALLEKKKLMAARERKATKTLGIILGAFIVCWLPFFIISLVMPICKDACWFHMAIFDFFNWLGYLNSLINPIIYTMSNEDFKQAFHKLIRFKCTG
pKi: −log10 of the molar value.

| MOLECULE | BOUND TYPE | pKi |
| --- | --- | --- |
| c1ccc2nc(N3CCNCC3)ccc2c1 | = | 6.60 |
| O=C(CCCN1CCC2(CC1)C(=O)NCN2c1ccccc1)c1ccc(F)cc1 | < | 5.00 |
| CN1C2CCC1CC(OC(=O)c1cc(Cl)cc(Cl)c1)C2 (stereo not given) | < | 5.00 |
| NCC(O)c1ccc(O)c(O)c1 (stereo not drawn) [Noradrenaline,(+)] | < | 5.00 |
| FC(F)(F)c1cccc(N2CCNCC2)c1 | = | 7.08 |
| CC[C@@H](CO)NC(=O)[C@@H]1C=C2c3cccc4c3c(cn4C)C[C@H]2N(C)C1 | = | 6.41 |
| CN1C[C@@H](NS(=O)(=O)N(C)C)C[C@@H]2c3cccc4c3c(cn4C)C[C@H]21 | < | 5.00 |
| Cc1ccc(N(CC2=NCCN2)c2cccc(O)c2)cc1 | = | 6.06 |
| NCCc1c[nH]c2ccc(C(N)=O)cc12 [[3H]-5-carboxamidotryptamine] | = | 8.40 |
| Clc1cccc(N2CCNCC2)c1 | = | 7.02 |
